These entries and their values trace back to ChEMBL document CHEMBL4321852.

- target or system: Estrogen receptor (Homo sapiens, UniProt P03372)
- Sequence (P03372 whole entry): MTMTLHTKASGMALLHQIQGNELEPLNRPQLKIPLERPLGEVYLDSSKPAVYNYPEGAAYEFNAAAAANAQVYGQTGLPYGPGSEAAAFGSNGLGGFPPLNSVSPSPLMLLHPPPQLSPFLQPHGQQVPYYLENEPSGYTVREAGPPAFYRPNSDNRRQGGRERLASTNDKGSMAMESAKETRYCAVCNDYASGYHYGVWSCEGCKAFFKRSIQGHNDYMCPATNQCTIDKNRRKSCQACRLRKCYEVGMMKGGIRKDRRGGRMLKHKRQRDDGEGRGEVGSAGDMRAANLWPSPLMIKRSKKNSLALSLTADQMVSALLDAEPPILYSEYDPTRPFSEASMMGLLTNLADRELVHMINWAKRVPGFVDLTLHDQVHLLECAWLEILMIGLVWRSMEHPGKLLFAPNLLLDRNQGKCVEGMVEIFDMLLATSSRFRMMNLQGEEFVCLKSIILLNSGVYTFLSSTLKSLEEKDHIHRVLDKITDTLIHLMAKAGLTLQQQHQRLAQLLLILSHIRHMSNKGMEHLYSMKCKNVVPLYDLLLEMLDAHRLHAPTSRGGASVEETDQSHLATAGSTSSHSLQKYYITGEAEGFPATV
- method notes: Inhibition of Gal4-tagged ERalpha LBD (unknown origin) by cell based luciferase reporter gene assay
pIC50: −log10 of the molar value.
quantity kind: pIC50

Form: compound = Cc1c(C2(C(F)(F)F)CC2)nc(C2CC2)n1-c1c(Cl)ccc(N2CC3(CC(C(=O)O)C3)C2)c1Cl (single isomer, unassigned; atropisomer) ; pIC50 = < 5.00
